These data points were gathered from ChEMBL document CHEMBL4813954.

# TARGET ENTITY: Muscarinic acetylcholine receptor M2 and M5 (Homo sapiens) (UniProt P08172+P08912)
# Sequence (P08172 whole entry, looked up): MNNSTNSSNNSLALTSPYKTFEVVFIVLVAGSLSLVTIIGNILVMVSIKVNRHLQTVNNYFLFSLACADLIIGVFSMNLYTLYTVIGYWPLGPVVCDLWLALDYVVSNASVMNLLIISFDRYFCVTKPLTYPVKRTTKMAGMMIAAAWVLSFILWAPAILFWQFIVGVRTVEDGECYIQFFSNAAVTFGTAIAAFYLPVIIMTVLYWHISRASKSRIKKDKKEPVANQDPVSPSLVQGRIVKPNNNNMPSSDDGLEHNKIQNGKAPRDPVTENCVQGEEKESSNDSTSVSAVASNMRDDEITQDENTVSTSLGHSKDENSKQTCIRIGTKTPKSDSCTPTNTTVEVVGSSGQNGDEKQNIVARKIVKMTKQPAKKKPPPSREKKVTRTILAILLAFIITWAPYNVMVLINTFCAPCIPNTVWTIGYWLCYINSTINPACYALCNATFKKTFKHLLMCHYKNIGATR
# Sequence (P08912 whole entry, looked up): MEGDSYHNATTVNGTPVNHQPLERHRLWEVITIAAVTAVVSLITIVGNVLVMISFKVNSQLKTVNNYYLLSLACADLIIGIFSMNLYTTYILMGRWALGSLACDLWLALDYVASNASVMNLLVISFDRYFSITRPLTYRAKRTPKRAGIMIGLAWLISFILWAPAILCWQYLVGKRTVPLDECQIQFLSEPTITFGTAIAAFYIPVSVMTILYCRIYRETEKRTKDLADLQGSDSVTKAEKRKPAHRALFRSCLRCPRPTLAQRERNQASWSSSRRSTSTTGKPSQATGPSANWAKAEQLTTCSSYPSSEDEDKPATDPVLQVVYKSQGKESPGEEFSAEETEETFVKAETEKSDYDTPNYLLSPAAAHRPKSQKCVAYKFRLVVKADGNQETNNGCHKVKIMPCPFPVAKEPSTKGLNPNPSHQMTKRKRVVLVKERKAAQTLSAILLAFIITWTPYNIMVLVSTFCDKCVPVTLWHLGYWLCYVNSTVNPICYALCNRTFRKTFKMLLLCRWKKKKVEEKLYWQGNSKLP
# TEST METHOD NOTES: Selectivity index, […] for displacement of [3H]NMS from human recombinant muscarinic receptor M5 expressed in CHO cell membranes […] for displacement of [3H]NMS from human recombinant muscarinic receptor M2 expressed in CHO cell membranes
Measured Selectivity Index, listed per entry.
MEASURED ATTRIBUTE: Selectivity Index

CC(=O)N[C@@H](CCCCN)C(=O)N[C@@H](CCCNC(=N)N)C(=O)NCCCCC1CCN(CC(=O)N2c3ccccc3NC(=O)c3ccccc32)CC1    400
CC(=O)N[C@@H](CCCCN)C(=O)N[C@@H](C)C(=O)N[C@@H](CCCNC(=N)N)C(=O)NCCN1CCN(CCCCC2CCN(CC(=O)N3c4ccccc4NC(=O)c4ccccc43)CC2)CC1    4900
CCC(=O)NCCNC(=O)CCc1cn(CCCCC2CCN(CC(=O)N3c4ccccc4NC(=O)c4ccccc43)CC2)cn1    230
N=C(N)NCCC[C@@H](N)C(=O)NCCN1CCN(CCCC2CCN(CC(=O)N3c4ccccc4NC(=O)c4ccccc43)CC2)CC1    1300
CC(=O)N[C@@H](Cc1c[nH]c2ccccc12)C(=O)N[C@@H](C)C(=O)N[C@@H](Cc1ccc(O)cc1)C(=O)NCCCCC1CCN(CC(=O)N2c3ccccc3NC(=O)c3ccccc32)CC1    6.2
